Numbers sourced from patent US10556889B1.

TARGET_OR_SYSTEM: uOR (Mus musculus)
Sequence (P42866 whole entry): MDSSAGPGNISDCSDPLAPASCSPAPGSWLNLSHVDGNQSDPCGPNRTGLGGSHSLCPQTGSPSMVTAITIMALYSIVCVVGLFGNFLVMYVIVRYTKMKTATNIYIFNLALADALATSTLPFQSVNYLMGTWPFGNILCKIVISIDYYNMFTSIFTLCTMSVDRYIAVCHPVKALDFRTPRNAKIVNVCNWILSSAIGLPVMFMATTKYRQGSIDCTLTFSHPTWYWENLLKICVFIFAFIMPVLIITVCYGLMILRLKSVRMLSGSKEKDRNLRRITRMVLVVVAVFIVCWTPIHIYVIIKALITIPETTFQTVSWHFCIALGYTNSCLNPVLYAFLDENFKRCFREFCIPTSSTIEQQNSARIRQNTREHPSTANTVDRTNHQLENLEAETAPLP
ASSAY_NOTES: Agonist induced ERK 1/2 phosphorylation (efficacy and potency relative to DAMGO)
Entries whose EC50 is below 1000 nM take Fulfilled; entries at or above 1000 nM take Not fulfilled.

COC(=O)[C@@H]1C[C@H](OC(=O)c2ccc(C(F)(F)F)cc2)C(=O)[C@H]2[C@@]1(C)CC[C@H]1C(=O)O[C@H](c3ccoc3)C[C@]21C :: Fulfilled

Quick check: EC50 of "COC(=O)[C@@H]1C[C@H](OC(=O)Nc2ncc(C)s2)C(=O)[C@H]2[C@@]1(C)CC[C@H]1C(=O)O[C@H](c3ccoc3)C[C@]21C" under 1000 nM? Not fulfilled

Quick check: EC50 of "COC(=O)[C@@H]1C[C@H](OC(=O)c2ccon2)C(=O)[C@H]2[C@@]1(C)CC[C@H]1C(=O)O[C@H](c3ccoc3)C[C@]21C" under 1000 nM? Not fulfilled

Quick check: EC50 of "COC(=O)[C@@H]1C[C@H](OC(=O)Nc2csc(C)n2)C(=O)[C@H]2[C@@]1(C)CC[C@H]1C(=O)O[C@H](c3ccoc3)C[C@]21C" under 1000 nM? Fulfilled

Quick check: EC50 of "COC(=O)[C@@H]1C[C@H](NC(=O)Nc2ccc(C#N)cc2)C(=O)[C@H]2[C@@]1(C)CC[C@H]1C(=O)O[C@H](c3ccoc3)C[C@]21C" under 1000 nM? Not fulfilled

Quick check: EC50 of "CCc1ncc(C(=O)O[C@H]2C[C@@H](C(=O)OC)[C@]3(C)CC[C@H]4C(=O)O[C@H](c5ccoc5)C[C@]4(C)[C@H]3C2=O)cn1" under 1000 nM? Fulfilled
